The measured values listed here are drawn from PubChem BioAssay (NCATS).

Molecular target: Cytochrome P450 2C9 (Homo sapiens) (UniProt P11712)
Sequence (P11712 whole entry, looked up): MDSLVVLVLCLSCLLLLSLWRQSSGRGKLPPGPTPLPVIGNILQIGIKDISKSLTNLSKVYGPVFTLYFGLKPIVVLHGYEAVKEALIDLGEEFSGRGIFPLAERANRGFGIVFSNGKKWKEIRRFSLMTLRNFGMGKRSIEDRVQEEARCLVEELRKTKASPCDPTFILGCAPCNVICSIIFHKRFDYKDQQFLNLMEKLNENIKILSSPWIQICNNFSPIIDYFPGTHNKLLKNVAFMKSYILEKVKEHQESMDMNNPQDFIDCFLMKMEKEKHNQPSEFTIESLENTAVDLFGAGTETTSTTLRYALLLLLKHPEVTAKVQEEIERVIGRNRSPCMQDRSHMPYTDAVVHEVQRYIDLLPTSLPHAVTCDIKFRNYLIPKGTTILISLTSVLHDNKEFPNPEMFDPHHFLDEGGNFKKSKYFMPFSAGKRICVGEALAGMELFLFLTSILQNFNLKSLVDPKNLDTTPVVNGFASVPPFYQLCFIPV
Assay: Cytochrome P450 family 2 subfamily C member 9 (CYP2C9) small molecule antagonists: luciferase biochemical (cell-free) qHTS assay (AID 1645842); further: nearly all actives have a fitted effect of over 55% in size
Conditions: P450-Glo CYP2C9 enzyme assay, luciferin luminescence; series mostly up to 57.4 µM
Records with an inconclusive call do not appear. Active and inactive are the calls of the source. The call rests on the fitted dose curve; in most records, active means well fitted inhibition curve with a large enough effect in the repeat runs; inconclusive means weak or mixed curves; inactive means no such curve, though single readings can be large or run the other way.
Classes used: active, inactive

• O=C(NCC(=O)N1CC[C@H](NC2CCC(O)(c3ccc(-c4ncccn4)cn3)CC2)C1)c1cccc(C(F)(F)F)c1 (stereo partly drawn) = inactive
• CC(C)N(C[C@H]1O[C@@H](n2cnc3c(N)ncnc32)[C@H](O)[C@@H]1O)C1CC(CCc2nc3ccc(C(C)(C)C)cc3[nH]2)C1 (stereo partly drawn) = inactive
• C(#Cc1cccc(CN2CCOCC2)c1)CCN1CCCCC1 = inactive
• Clc1ccc(CN[C@H]2CCN(c3ncc(Br)cn3)C2)c(Cl)c1 = active
• O=C(Nc1cccnn1)N1CCC(=Cc2cccc(Oc3ccc(C(F)(F)F)cn3)c2)CC1 = inactive
• C#Cc1cnc2[nH]c(=O)n(C(CC)CC)c2n1 = active
• CCOC(=O)[C@H](CCc1ccccc1)CC1(C(=O)N[C@H]2CCc3ccccc3N(CC(=O)O)C2=O)CCCC1 = inactive
• N[C@@H](CC(=O)N1CCn2c(nnc2C(F)(F)F)C1)Cc1[nH]nc2c(F)c(F)ccc12 = inactive
• O=C(c1ccc(C#Cc2cccc(F)c2)cn1)N1CC2CC2C1 (stereo not drawn) = active
• Cc1ccc(C(=O)Nc2ccc(Oc3cc4cnn(C)c4cc3-c3cn[nH]c3)c(F)c2)c(=O)n1-c1ccc(F)cc1 = active
• CC(NCc1ccc(OCc2cccc(F)c2)cc1)C(N)=O (stereo not drawn) = inactive
• CCCCN(CCCC)C(=O)CN1C[C@H](c2ccc3c(c2)OCO3)[C@@H](C(=O)O)[C@@H]1c1ccc(OC)cc1 = active
• CC(=O)OCC(=O)[C@@]12OC3(CCCC3)O[C@@H]1C[C@H]1[C@@H]3CCC4=CC(=O)C=C[C@]4(C)[C@@]3(F)[C@@H](O)C[C@@]12C = active

---

System: Dd2
Test: qHTS profiling for inhibitors of Plasmodium falciparum proliferation (AID 504749); further: nearly all actives have a fitted effect of over 60% in size
Details: P. falciparum in erythrocytes, SYBR Green DNA, 72 h; series mostly up to 28.7 µM
Records with an inconclusive call do not appear. The source made the active and inactive calls. Calls follow the shape of the dose curve; as a rule, active = well fitted inhibition curve with a large enough effect; inconclusive = small, poorly fitted or top-dose-only effect; inactive = flat fitted curve, though single readings scatter.
Labels: active, inactive

- CCCCCC(CC)COC(=O)CC(C(=O)OCC(CC)CCCC)S(=O)(=O)O (centres undefined): inactive
- Cc1c(C)c2c(c(C)c1O)CC[C@@](C)(CCC[C@H](C)CCC[C@H](C)CCCC(C)C)O2: inactive
- COc1ccc2c3c1O[C@H]1C[C@@H](O)C=C[C@@]31CCN(C)C2: inactive
- Cc1ccccc1OCC(O)CNCCOc1ccc(C(N)=O)cc1 (centres undefined): inactive
- O=C(O)CCC(=O)C(=O)O: inactive
- CC[C@@]1(O)C(=O)OCc2c1cc1n(c2=O)Cc2cc3c([N+](=O)[O-])cccc3nc2-1: active
- CCN(CC)Cc1cc(Nc2ccnc3cc(Cl)ccc23)ccc1O: active
- CC(C)(C)C(=O)OCOC(=O)[C@@H]1N2C(=O)[C@@H](N=CN3CCCCCC3)[C@H]2SC1(C)C: inactive
- Oc1cc(O)c2c(c1)OC(c1ccc(O)c(O)c1)C(O)C2 (centres undefined): inactive
